# System name: 11β-hydroxylase (Rattus norvegicus)
# Format: binding
# Conditions used: 2 nM 3H-etomidate; equation 2
Where Hill coefficient for inhibition of specific 3H-etomidate binding equals or exceeds -0.3, the correct label is true; where it does not, the label is false.

Q: Quick check: does C[C@H](c1ccccc1)n1cncc1C(=O)O [etomidate-CA] have Hill coefficient for inhibition of specific 3H-etomidate binding greater than or equal to -0.3?
Result: false

Q: Quick check: does CNC1(c2ccccc2Cl)CCCCC1=O (centres unmarked) [ketamine, reference compound] have Hill coefficient for inhibition of specific 3H-etomidate binding greater than or equal to -0.3?
Result: true

Q: Quick check: does Cc1cccc([C@H](C)c2cnc[nH]2)c1C [dexmedetomidine, reference compound] have Hill coefficient for inhibition of specific 3H-etomidate binding greater than or equal to -0.3?
Result: false

Q: Quick check: does CCOC(=O)c1cccn1[C@H](C)c1ccccc1 [carboetomidate] have Hill coefficient for inhibition of specific 3H-etomidate binding greater than or equal to -0.3?
Result: true

Q: Quick check: does CCOC(=O)c1cncn1[C@H](C)c1ccccc1 [etomidate, reference compound] have Hill coefficient for inhibition of specific 3H-etomidate binding greater than or equal to -0.3?
Result: false

====

# System name: 11β-hydroxylase (Rattus norvegicus)
# Sequence (P15393 25-499): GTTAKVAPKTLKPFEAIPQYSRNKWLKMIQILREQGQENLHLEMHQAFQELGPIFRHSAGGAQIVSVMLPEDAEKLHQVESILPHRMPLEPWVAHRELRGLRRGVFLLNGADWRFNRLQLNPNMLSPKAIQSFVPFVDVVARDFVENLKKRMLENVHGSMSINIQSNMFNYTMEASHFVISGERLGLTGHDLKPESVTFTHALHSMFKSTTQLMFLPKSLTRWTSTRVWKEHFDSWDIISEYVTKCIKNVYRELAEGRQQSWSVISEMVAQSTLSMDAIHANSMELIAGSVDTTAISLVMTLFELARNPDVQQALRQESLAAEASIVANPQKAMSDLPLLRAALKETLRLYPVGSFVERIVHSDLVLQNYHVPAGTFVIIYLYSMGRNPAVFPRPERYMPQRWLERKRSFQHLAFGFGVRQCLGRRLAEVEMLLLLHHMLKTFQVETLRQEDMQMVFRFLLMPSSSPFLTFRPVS
Assay readout: pKd
The read-out pKd is expressed as -log10 of concentration in moles per litre.

Value of measured pKd for the entry CCOC(=O)c1cncn1[C@H](C)c1ccccc1 [etomidate, reference compound] : 7.68

====

# System name: 11β-hydroxylase (Rattus norvegicus)
# Type: binding
# Conditions used: read-out: half-inhibitory concentration (IC50) for specific 3H-etomidate binding; 2 nM 3H-etomidate; 0.07 mg/ml protein
Assay readout: pIC50
The read-out pIC50 is expressed as -log10 of concentration in moles per litre.

Value of measured pIC50 for the entry C[C@H](c1ccccc1)n1cncc1C(=O)O [etomidate-CA] : 2.96

These data points were gathered from paper PMC5069162.
